Target: FXR ligand binding domain (GST-FXR LBD fusion protein, human FXR aa 193-473) (Homo sapiens)
Sequence (Q96RI1 193-472 isoform Q96RI1-2 limits assumed): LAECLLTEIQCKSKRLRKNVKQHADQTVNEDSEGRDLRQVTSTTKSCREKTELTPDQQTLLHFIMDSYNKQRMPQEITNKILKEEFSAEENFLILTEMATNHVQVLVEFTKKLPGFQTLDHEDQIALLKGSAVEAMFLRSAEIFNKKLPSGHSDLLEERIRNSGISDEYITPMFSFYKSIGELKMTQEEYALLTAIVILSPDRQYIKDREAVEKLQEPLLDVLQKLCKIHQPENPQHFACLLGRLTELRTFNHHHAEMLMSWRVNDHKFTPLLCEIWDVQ
Assay: Radioligand binding assay (radioligand displacement, scintillation proximity)
Conditions: 40 nM GST-FXR LBD on SPA beads, radioligand 2,N-dicyclohexyl-2-[2-(2,4 dimethoxy-phenyl)-benzoimidazol-1-yl]-acetamide, RT 30 minutes
pIC50: −log10 of the molar value.
assay-endpoint: pIC50

Solved cases (10 shown):
{"compound-smiles": "O=C(O)CCc1ccc(NC(=O)N(c2c3ccccc3nn2-c2ccc(Cl)cc2)C2CCCCC2)c(F)c1", "endpoint-value": 6.47}
{"compound-smiles": "CCOc1cccc(N(C(=O)NC2CCCCC2)c2c3ccccc3nn2-c2ccc(Cl)cc2)c1", "endpoint-value": 6.10}
{"compound-smiles": "CC(C)(C(=O)O)c1ccc(NC(=O)N(c2c3ccccc3nn2-c2ccc(Cl)cc2)C2CCCCC2)c(F)c1", "endpoint-value": 5.47}
{"compound-smiles": "O=C(O)Cc1ccc(NC(=O)N(c2c3ccccc3nn2-c2ccc(Cl)cc2)C2CCCCC2)c(Cl)c1", "endpoint-value": 6.14}
{"compound-smiles": "O=C(NC1CCCCC1)N(c1cccc(Cl)c1)c1c2ccccc2nn1-c1ccc(Cl)cc1", "endpoint-value": 7.70}
{"compound-smiles": "O=C(OC1CCCCC1)N(c1c2ccccc2nn1-c1ccc(Cl)cc1)C1CCCCC1", "endpoint-value": 7.22}
{"compound-smiles": "CCCCN(C(=O)NC1CCCCC1)c1c2ccccc2nn1-c1ccc(Cl)cc1", "endpoint-value": 6.74}
{"compound-smiles": "O=C(NC1CCCCC1)N(c1cccc(Cl)c1)c1c2cc(F)c(F)cc2nn1-c1cccc(Cl)c1", "endpoint-value": 7.10}
{"compound-smiles": "O=C(NC1CCCCC1)N(c1c2ccccc2nn1-c1ccc(Cl)cc1)C1CCCCC1", "endpoint-value": 7.70}
{"compound-smiles": "O=C(O)c1ccc(NC(=O)N(c2c3cc(F)c(F)cc3nn2-c2ccc(Cl)cc2)C2CCCCC2)c(Cl)c1", "endpoint-value": 6.40}

a. O=C(NC1CCCCC1)N(c1ccccc1)c1c2ccccc2nn1-c1ccc(Cl)cc1
b. CCCCN(C(=O)Nc1ccc(C(=O)O)cc1Cl)c1c2ccccc2nn1-c1ccc(Cl)cc1
In: Lab note: record which item had the higher pIC50, a or b . Give the chosen item's label as your response.
Out: a

----------
Biological target: FXR ligand binding domain (GST-FXR LBD fusion protein, human FXR aa 193-473) (Homo sapiens)
Experiment: Radioligand binding assay (radioligand displacement, scintillation proximity)
Conditions: 40 nM GST-FXR LBD on SPA beads, radioligand 2,N-dicyclohexyl-2-[2-(2,4 dimethoxy-phenyl)-benzoimidazol-1-yl]-acetamide, RT 30 minutes
assay-endpoint: IC50 (nM)

{"compound-smiles": "O=C(NC1CCCCC1)N(c1cccc(Cl)c1)c1c2ccc(F)cc2nn1-c1cccc(Cl)c1", "unit-label": "nM", "IC50": 20}

a. O=C(NC1CCCCC1)N(c1c2ccccc2nn1-c1ccc(Cl)cc1)C1CCOCC1
b. O=C(NC1CCCC1)N(c1c2ccccc2nn1-c1ccc(Cl)cc1)C1CCCC1
c. O=C(O)c1ccc(NC(=O)N(c2c3ccccc3nn2-c2ccc(Cl)cc2)C2CCC2)c(Cl)c1
In: Arrange these molecules by their IC50, starting with the largest number. Reply with the item labels sorted in the order that was asked for.
Out: c, a, b

The reported measurements were obtained from patent US8153663B2.
